In this section we review reported yeast fitness values for a set of variants.
B1: tRNA (parent)
chain: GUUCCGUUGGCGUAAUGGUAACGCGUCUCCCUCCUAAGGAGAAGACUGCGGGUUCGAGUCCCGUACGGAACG

- Variants of: B1
- protocol.text: yeast fitness relative to wild type (ratio to wild type); higher = fitter; tRNA-Arg(CCU), competitive growth, 37 C, YPD
This sample holds only a part of the variants without activity.
measured.metric: yeast fitness

1. GUUUCGUUGGCGUAAUGGUAGCGCGUCUCCGUCGUAAGGAGAAGACUGCGGGUUCGAGUCCCGUACGGAACG [C4U A21G C31G C34G] | 0.596
2. GUUCCGUUGGCGAAAUGGUAACGCCUCUCCCUCCUAAGGAGAAGGCUGCGGGUUCGAGUCCCGUACGGAACG [U13A G25C A45G] | 0.535
3. GUUCCGUUGGCGUAUUGGUAACGCGUCUCCCUCCUAAGGAGAAGACUGCGGGUUCGAGUCCCGUACGGCACG [A15U A69C] | 0.77
4. GUUCCGUUGGCGUAAUGGUAACGCGUCUCCCUCCUAAGGAGAAGACUCCGGGUUCGAGUCUCGUACGGAACG [G48C C61U] | 0.733
5. GUUCCGUUGGCGUAAUGGUAACGCCUCUCCCUCCUAAGGAGAAGACUGCCGGUUCGAGUCCCGUACGGAACG [G25C G50C] | 0.627
6. GUUUCGUUGGCGUAAUGGUAACGCGUCUACCUCCUAAGGAGAAGACUGCGGGUUCGAAUCGCGUACGGAUCG [C4U C29A G58A C61G A70U] | 0.548
7. GUUCCGUUGGCGUAAUGGUAACGCGUCUCCGUCCUAAGGAGAAGACUGCGGGUGCGAGUCCCGUACGGAACG [C31G U54G] | 0.6
8. GUUCCGUUGGCGUAAUGGUAGCGCGUCUCCCUCCUAAGGAGAAGACUGCGGGUUCGAGUCCCGUACGGAGCG [A21G A70G] | 0.992
9. GUUCCGUUGGUGUAAUGGUAACGCGUCUCCCUCCUAAGGAGAAGACUGCGGGUUCGAGUCCCGUAUGGGACG [C11U C66U A69G] | 0.639
10. GUUCGCUUGGCGUAAUGGUAUCGCGUCUCCCUCCUAAGGAGAAGACUGCGGGUUCGAGUCCCGUACGGAACG [C5G G6C A21U] | 0.544
11. GUUCCCUUGGCGUAAUGGUAACGCGUCUCCCUCCUAAGGAGAAGACCGCGGGUUCGAGUCUCGUACGGAACG [G6C U47C C61U] | 0.533
12. GUUCCGUUGGCGUAAUGGCCACGCGUCUCCCUCCUAAGGAGAAGACUGCGGGUUCGAGUCCCGUACGGAUCG [U19C A20C A70U] | 0.65
13. GUUCCGUUGGCGUAAUGGUAACGCGUCUCAUUCCUAAGGAGAAGACUGCGGGUUCGAGUCCCGUACGGAACG [C30A C31U] | 1
14. GUUCCGUUGGCGUAAUGGUAACGCGUCUCCCUCCUAAGGAGAAGACUGCGGGUUAGAGUCCGGUACGGAACG [C55A C62G] | 0.543
15. GUUCCGUUGGCGUCAUGGUAAUGCGUCUCCCACUUAAGGAGAAGACUGCGGGUUCGAGUCCCGUAUGGAACG [A14C C22U U32A C34U C66U] | 0.576
16. GUUCCGUUGGCGUAAUGGUAACCUGUCUCCCUCCUAAGGAGAAGAUCGCGGGUUCGAGUCCCGUACGGAACG [G23C C24U C46U U47C] | 0.684
17. GUUCCGUUGGCGUGAUGGUAACGCGUCUCCCUCCUAAGGAGAAGACUGCGGGUUCGAAUCCCGUACGGAACG [A14G G58A] | 0.836
18. GUUCCGUUGGCGUAAUGGUAACGGGUCUCCCUCCUGAGGAGAAGACUGCGGGUUCGGGUCCCGUACGGAACG [C24G A36G A57G] | 0.533
19. GUUCCGUUGGCGUAAUGGUAACGCGUCUCCCUCCUAAGGAGAAGACUGCAGGUUCGAGUACCGUACGGAACG [G50A C60A] | 0.581
20. GUUCCGUUGGCGUAAUGGUAACGCGUCUCCCACCUAAGGAGAAGACUGCGGGUUCGAGUCGCGUAGGGAACG [U32A C61G C66G] | 0.576
21. GUUCCGUUGGCGUAAUGGUAAUGCGCCUCCCUCCUAAGGAGAAGACUGCGGGUUCGAGUCCCGUACGGAACG [C22U U26C] | 0.667
22. GUUCCGUUGGCGUAAUGGUAACGCAUGUCCCUCCUAAGGAGAAGACUGCGGGUUCGAGUCGCGUACGGAACG [G25A C27G C61G] | 0.574
